Measured apparent Kd (screen) by item
TARGET OF ASSAY: T1, TNFR1 (Homo sapiens, UniProt P19438)
T1 chain: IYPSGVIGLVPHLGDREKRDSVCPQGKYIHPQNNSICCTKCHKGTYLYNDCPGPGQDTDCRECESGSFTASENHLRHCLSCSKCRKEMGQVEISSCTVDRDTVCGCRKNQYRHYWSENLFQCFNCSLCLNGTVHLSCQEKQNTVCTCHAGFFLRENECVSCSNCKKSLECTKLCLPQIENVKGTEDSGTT
TEST PROTOCOL: yeast display SC50
I only need the number, in nM, no unit after it.

Observe how each entry below is paired with its result.
BINDER | EXPERIMENTAL READOUT | REPORTED
V104Q (designed binder) MTLQELLREEALRRAEAEAFRYALELLAEKFPEQKEYLLDLAEEIESQIRSLSGVDVEDVRKFLDKEWAWVKELLAEHPAELAEVEAARAARLAELRAEVEAKQAA | apparent Kd (screen) | 0.49
P79R (designed binder) MTLQELLREEALRRAEAEAFRYALELLAEKFPEQKEYLLDLAEEIESQIRSLSGVDVEDVRKFLDKEWAWVKELLAEHRAELAEVEAARAARLAELRAEVEAKVAA | apparent Kd (screen) | 0.869
T2I (designed binder) MILQELLREEALRRAEAEAFRYALELLAEKFPEQKEYLLDLAEEIESQIRSLSGVDVEDVRKFLDKEWAWVKELLAEHPAELAEVEAARAARLAELRAEVEAKVAA | apparent Kd (screen) | 0.653

Entry F20Q (designed binder) MTLQELLREEALRRAEAEAQRYALELLAEKFPEQKEYLLDLAEEIESQIRSLSGVDVEDVRKFLDKEWAWVKELLAEHPAELAEVEAARAARLAELRAEVEAKVAA — recorded apparent Kd (screen) = 2.25

# apparent Kd (screen) (binder: F20R (designed binder) MTLQELLREEALRRAEAEARRYALELLAEKFPEQKEYLLDLAEEIESQIRSLSGVDVEDVRKFLDKEWAWVKELLAEHPAELAEVEAARAARLAELRAEVEAKVAA ) is 10.4

Kindly note the recorded apparent Kd (screen) for F20C (designed binder) MTLQELLREEALRRAEAEACRYALELLAEKFPEQKEYLLDLAEEIESQIRSLSGVDVEDVRKFLDKEWAWVKELLAEHPAELAEVEAARAARLAELRAEVEAKVAA , which is 1.69

Kindly note the recorded apparent Kd (screen) for W70D (designed binder) MTLQELLREEALRRAEAEAFRYALELLAEKFPEQKEYLLDLAEEIESQIRSLSGVDVEDVRKFLDKEWADVKELLAEHPAELAEVEAARAARLAELRAEVEAKVAA , which is 12.5

For A98T (designed binder) MTLQELLREEALRRAEAEAFRYALELLAEKFPEQKEYLLDLAEEIESQIRSLSGVDVEDVRKFLDKEWAWVKELLAEHPAELAEVEAARAARLAELRTEVEAKVAA the binder record lists apparent Kd (screen) as 0.539

Measured apparent Kd (screen), E95T (designed binder) MTLQELLREEALRRAEAEAFRYALELLAEKFPEQKEYLLDLAEEIESQIRSLSGVDVEDVRKFLDKEWAWVKELLAEHPAELAEVEAARAARLATLRAEVEAKVAA : 0.539

# apparent Kd (screen) of T2Q (designed binder) MQLQELLREEALRRAEAEAFRYALELLAEKFPEQKEYLLDLAEEIESQIRSLSGVDVEDVRKFLDKEWAWVKELLAEHPAELAEVEAARAARLAELRAEVEAKVAA = 1.27

Reported apparent Kd (screen) ( A19L (designed binder) MTLQELLREEALRRAEAELFRYALELLAEKFPEQKEYLLDLAEEIESQIRSLSGVDVEDVRKFLDKEWAWVKELLAEHPAELAEVEAARAARLAELRAEVEAKVAA ) = 2.05

Sure, the documented apparent Kd (screen) for E43V (designed binder) MTLQELLREEALRRAEAEAFRYALELLAEKFPEQKEYLLDLAVEIESQIRSLSGVDVEDVRKFLDKEWAWVKELLAEHPAELAEVEAARAARLAELRAEVEAKVAA is 0.539

In plain terms, A80P (designed binder) MTLQELLREEALRRAEAEAFRYALELLAEKFPEQKEYLLDLAEEIESQIRSLSGVDVEDVRKFLDKEWAWVKELLAEHPPELAEVEAARAARLAELRAEVEAKVAA has a documented apparent Kd (screen) of 0.446
